Values compiled from the M2OR odorant receptor database.

- system: UniProt Q8VGD7
- Sequence (Q8VGD7 as listed by the source): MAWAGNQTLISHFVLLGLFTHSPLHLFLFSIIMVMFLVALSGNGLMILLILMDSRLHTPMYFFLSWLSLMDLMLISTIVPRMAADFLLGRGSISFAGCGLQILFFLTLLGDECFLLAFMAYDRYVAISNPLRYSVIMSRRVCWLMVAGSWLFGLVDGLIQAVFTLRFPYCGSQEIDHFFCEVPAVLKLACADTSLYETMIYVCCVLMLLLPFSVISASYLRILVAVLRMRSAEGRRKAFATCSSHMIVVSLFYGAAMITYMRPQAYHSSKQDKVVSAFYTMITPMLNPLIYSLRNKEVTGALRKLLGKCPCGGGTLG
- assay-setup: stereoisomer not certain
Select the correct class. Options are class 1 (active), class 0 (inactive) and nothing else.

Worked set:
CCC(=O)O    class 0
CC(=O)OCC=C(C)C    class 0
CCCCCCCCS    class 0

Would you kindly look at the next entry?
query: Identify the outcome logged in this assay for the compound shown: CCCCCCCCO
result: class 0

----------
- system: OR1C1 (Homo sapiens) (UniProt Q15619)
- Sequence (Q15619 whole entry): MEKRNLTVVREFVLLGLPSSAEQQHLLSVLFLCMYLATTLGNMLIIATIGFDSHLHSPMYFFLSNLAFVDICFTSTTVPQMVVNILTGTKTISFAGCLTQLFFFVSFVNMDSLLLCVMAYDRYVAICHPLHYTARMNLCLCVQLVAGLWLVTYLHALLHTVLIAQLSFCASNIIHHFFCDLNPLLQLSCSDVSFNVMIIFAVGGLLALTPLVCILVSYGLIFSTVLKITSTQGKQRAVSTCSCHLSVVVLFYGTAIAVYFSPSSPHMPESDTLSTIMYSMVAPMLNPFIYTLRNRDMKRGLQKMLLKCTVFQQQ
- assay-setup: stereoisomer not certain
Hello, when you answer, please use one of the following outcomes: label 1 for active, label 0 for inactive

Below, 4 compounds whose answers are already recorded.
O=c1ccc2ccccc2o1    label 1
CC1=C(O)C(=O)C(C)O1 (configuration not stated)    label 0
CCCCCC(=O)C(C)C(C)=O (configuration not stated)    label 0
CC1CCCCCCCCCCCCC(=O)C1 (configuration not stated)    label 0

query: For CCCCC(S)C(C)CO (configuration not stated) , which call appears in the assay record?
result: label 0

query: Called result for CC(=O)c1c(C)c([N+](=O)[O-])c(C(C)(C)C)c([N+](=O)[O-])c1C
result: label 0

query: Hi, do you know how Cc1cnc(C)c(C)n1 came out in this test?
result: label 0

----------
- system: UniProt Q9WVD7
- Sequence (Q9WVD7 as listed by the source): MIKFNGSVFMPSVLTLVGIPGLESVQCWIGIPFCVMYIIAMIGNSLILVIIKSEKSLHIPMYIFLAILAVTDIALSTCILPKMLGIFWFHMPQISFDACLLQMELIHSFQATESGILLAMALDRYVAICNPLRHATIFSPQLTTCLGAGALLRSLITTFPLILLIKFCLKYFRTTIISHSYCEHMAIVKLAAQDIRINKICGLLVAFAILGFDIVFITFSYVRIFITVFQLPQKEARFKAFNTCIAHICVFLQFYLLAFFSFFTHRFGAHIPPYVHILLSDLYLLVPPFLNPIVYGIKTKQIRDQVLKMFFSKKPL
- assay-setup: stereoisomer not certain
Mark one answer only. Choices: 1.0 for active, 0.0 for inactive

CCCCCO    0.0
CCCCCCC(=O)[O-].[H+]    1.0
O=C([O-])CCCCC(=O)[O-].[H+].[H+]    0.0

query: Hi team, can someone confirm the assay call for O=C([O-])CCCCCCCC(=O)[O-].[H+].[H+] ?
result: 0.0

query: Please indicate how the test categorized O=C(O)CCCCCBr .
result: 1.0

query: Dear colleague, could you share the recorded outcome for O=C(O)CCCCCC(=O)O when you have a moment?
result: 0.0

query: Record lookup: outcome of this test for CCCCCCCO ?
result: 0.0

----------
- system: UniProt Q7TRE4
- Sequence (Q7TRE4 as listed by the source): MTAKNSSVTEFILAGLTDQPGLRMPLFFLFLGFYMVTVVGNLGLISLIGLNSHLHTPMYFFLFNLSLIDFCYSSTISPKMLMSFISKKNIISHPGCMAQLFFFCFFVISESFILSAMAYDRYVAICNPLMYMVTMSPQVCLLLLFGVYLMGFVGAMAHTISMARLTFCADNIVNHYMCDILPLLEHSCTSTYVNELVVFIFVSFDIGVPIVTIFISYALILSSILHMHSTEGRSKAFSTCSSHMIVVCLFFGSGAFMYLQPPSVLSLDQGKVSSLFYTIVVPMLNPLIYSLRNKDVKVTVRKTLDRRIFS
- assay-setup: stereoisomer not certain
Returns: one label drawn from YES = active, NO = inactive

// known answers, use as guide
COc1cc(C(=O)O)ccc1O    NO
CC12CCC(CC1=O)C2(C)C (stereo not drawn)    NO
C=C(C)C1CCC(C)C(=O)C1 (stereo not drawn)    NO
CCCCCCCCCO    NO
CCCCCCCCO    NO

query: Which outcome was assigned to CCCC(C)=O in this test?
result: NO

query: Status in this test for CC(=O)OCc1ccccc1 ?
result: NO

query: Look up the recorded call for O=C1CCOc2ccccc21 in this test.
result: NO

query: I would be grateful if you could indicate the recorded call for CCCCCCCC(C)=O .
result: NO

----------
- system: OR8B3 (Homo sapiens)
- Sequence (whole entry): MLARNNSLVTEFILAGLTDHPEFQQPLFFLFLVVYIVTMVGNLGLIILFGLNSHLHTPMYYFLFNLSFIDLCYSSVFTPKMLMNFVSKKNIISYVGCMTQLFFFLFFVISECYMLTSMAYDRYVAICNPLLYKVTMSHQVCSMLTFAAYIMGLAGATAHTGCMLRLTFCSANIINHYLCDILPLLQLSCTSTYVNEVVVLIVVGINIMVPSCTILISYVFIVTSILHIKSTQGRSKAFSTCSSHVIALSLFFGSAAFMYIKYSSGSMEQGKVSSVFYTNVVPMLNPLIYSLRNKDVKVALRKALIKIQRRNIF
- assay-setup: stereoisomer not certain
readout-name: odorant receptor agonist call

Example entries begin here.
CCCCCC(S)C(C)CO (stereo not drawn)    inactive
CC(=O)c1c(C)c([N+](=O)[O-])c(C(C)(C)C)c([N+](=O)[O-])c1C    inactive
CCC1OC(C)=C(O)C1=O (stereo not drawn)    inactive
CCC1OC(=O)C(O)=C1C (stereo not drawn)    inactive
CC(CO)CS (stereo not drawn)    inactive
CC1=C(O)C(=O)C(C)O1 (stereo not drawn)    inactive
CCCC(S)CCOC(C)=O (stereo not drawn)    inactive

Field: next molecule
query: GET odorant receptor agonist call where system = OR8B3 (Homo sapiens) and item = CCCCC(S)C(C)CO (stereo not drawn)
result: inactive
